All values here come from paper PMC5216119.

target: Cdc4^WD40 (Saccharomyces cerevisiae); test: Isothermal titration calorimetry (ITC) with Cdc4^WD40; details: 20 °C, cell 30 μM Cdc4^WD40, syringe 100 μM pSic1 or 200 μM SCF-I2, 50 mM Na2HPO4 pH 7.2, 150 mM NaCl, 2 mM β-mercaptoethanol, single-site model, repeated twice, read-out: Kd value for binding Cdc4^WD40 (ITC)
Sequence (P07834 367-744): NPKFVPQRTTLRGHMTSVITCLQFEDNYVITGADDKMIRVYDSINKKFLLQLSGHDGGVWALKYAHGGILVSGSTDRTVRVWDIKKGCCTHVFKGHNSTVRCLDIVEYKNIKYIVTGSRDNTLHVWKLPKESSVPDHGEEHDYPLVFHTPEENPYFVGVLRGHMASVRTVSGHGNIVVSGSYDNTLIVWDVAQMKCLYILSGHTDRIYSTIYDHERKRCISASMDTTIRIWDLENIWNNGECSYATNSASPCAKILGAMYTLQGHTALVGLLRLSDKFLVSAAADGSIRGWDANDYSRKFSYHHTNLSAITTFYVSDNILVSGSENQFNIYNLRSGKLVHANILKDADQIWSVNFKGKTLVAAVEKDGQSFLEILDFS
MEASURED_PARAMETER: Kd (nM)
Write the number in nM without appending the unit.

Ask: Give Kd for "O=C(O)c1ccc2ccccc2c1-c1c(C(=O)O)ccc2ccccc12"
Result: 600
